Value source: paper PMC5466964

Please respond with reported viability at 24 h for every item in the list.
# experimentalDetails: Cytotoxicity assay, 0.4% sulforhodamine B, MRC5
# Format: cell-based
# details: human; MRC5 cells, at MIC; read-out: cell viability at the MIC values
Give bare numbers, in %.

CCCCCCCCCCOC(=O)c1ccc(O)c(O)c1 [decyl, decyl protocatechuate] :: 98
CCCCCCCCOC(=O)c1ccc(O)c(O)c1 [octyl, octyl protocatechuate] :: 98
CCCCCCOC(=O)c1ccc(O)c(O)c1 [hexyl, hexyl protocatechuate] :: 99
CCCCCCCCCCCCOC(=O)c1ccc(O)c(O)c1 [dodecyl, Dodecyl protocatechuate] :: 98
CCCCCCCOC(=O)c1ccc(O)c(O)c1 [heptyl, heptyl protocatechuate] :: 65

Moving on to another compound below.
query: Supply viability at 24 h value. Item: CCCCCCCCCOC(=O)c1ccc(O)c(O)c1 [nonyl, nonyl protocatechuate]
result: 96

###

# experimentalDetails: Cytotoxicity assay, 0.4% sulforhodamine B, MRC5
# Format: cell-based
# details: human; MRC5 cells, 24 h treatment, SRB
# Procedure: The cytotoxicity of the protocatechuates was assessed in the MRC5 cell line (MRC5) obtained from the American Type Culture Collection (ATCC; Manassas, VA, United States) and HepG2 cell line obtained from the Biotechnology Laboratory Biotech (UNICAMP, Brazil). […] After the 24 h treatment the cytotoxicity was assessed by the 0.4% sulforhodamine B (SRB) ([Vichai and Kirtikara, 2006]). […] The absorbance was measured at 570 nm. […]
What log10 IC50 at 24 h was measured for each of the following?
Recorded IC50 at 24 h (log10, µg/mL)

List reported log10 IC50 at 24 h for each of these molecules:
1. CCCCCCCCCCCCOC(=O)c1ccc(O)c(O)c1 [dodecyl, Dodecyl protocatechuate]
2. CCC(C)n1ncn(-c2ccc(N3CCN(c4ccc(OCC5COC(Cn6cncn6)(c6ccc(Cl)cc6Cl)O5)cc4)CC3)cc2)c1=O (centres unmarked) [ITC, itraconazole, reference compound]
3. CCCCCCOC(=O)c1ccc(O)c(O)c1 [hexyl, hexyl protocatechuate]
4. CCCCCCCCCOC(=O)c1ccc(O)c(O)c1 [nonyl, nonyl protocatechuate]
5. CCCCCCCCCCOC(=O)c1ccc(O)c(O)c1 [decyl, decyl protocatechuate]
6. C[C@@H]1[C@H](O)[C@@H](C)/C=C/C=C/C=C/C=C/C=C/C=C/C=C/[C@H](O[C@@H]2O[C@H](C)[C@@H](O)[C@H](N)[C@@H]2O)C[C@@H]2O[C@](O)(C[C@@H](O)C[C@@H](O)[C@H](O)CC[C@@H](O)C[C@@H](O)CC(=O)O[C@H]1C)C[C@H](O)[C@H]2C(=O)O [AMB, Amphotericin B, reference compound]

result:
1.25
-1.00
1.47
1.25
1.20
-0.66

Return reported log10 IC50 at 24 h values for all items listed beneath this line.
1. CCCCCCCOC(=O)c1ccc(O)c(O)c1 [heptyl, heptyl protocatechuate]
2. CCCCCCCCOC(=O)c1ccc(O)c(O)c1 [octyl, octyl protocatechuate]

result:
1. 1.25
2. 1.53

###

# Tested on: Paracoccidioides brasiliensis S1 isolate 18 (Pb18)
# experimentalDetails: MIC by microdilution (CLSI M27-A3 modified, alamar blue), Pb18
# Type: cell-based
# details: read-out: Pb18 MIC
Would you kindly list MIC for each of these compounds?
Numbers only, in µg/mL.

A selection of reference data follows.
CCCCCCCCCOC(=O)c1ccc(O)c(O)c1 [nonyl, nonyl protocatechuate] :: 1.9
CCCCCCCCCCCCOC(=O)c1ccc(O)c(O)c1 [dodecyl, Dodecyl protocatechuate] :: 0.48
CCCCCCCCCCOC(=O)c1ccc(O)c(O)c1 [decyl, decyl protocatechuate] :: 0.97
CCCCCCCCOC(=O)c1ccc(O)c(O)c1 [octyl, octyl protocatechuate] :: 0.97
CCCCCCCOC(=O)c1ccc(O)c(O)c1 [heptyl, heptyl protocatechuate] :: 7.8

Below are 3 compounds. Give each one its MIC.
1. CCCCCCOC(=O)c1ccc(O)c(O)c1 [hexyl, hexyl protocatechuate]
2. CCC(C)n1ncn(-c2ccc(N3CCN(c4ccc(OCC5COC(Cn6cncn6)(c6ccc(Cl)cc6Cl)O5)cc4)CC3)cc2)c1=O (centres unmarked) [ITC, itraconazole, reference compound]
3. C[C@@H]1[C@H](O)[C@@H](C)/C=C/C=C/C=C/C=C/C=C/C=C/C=C/[C@H](O[C@@H]2O[C@H](C)[C@@H](O)[C@H](N)[C@@H]2O)C[C@@H]2O[C@](O)(C[C@@H](O)C[C@@H](O)[C@H](O)CC[C@@H](O)C[C@@H](O)CC(=O)O[C@H]1C)C[C@H](O)[C@H]2C(=O)O [AMB, Amphotericin B, reference compound]

result:
1: 3.9; 2: 0.02; 3: 0.13
